Data provenance is patent US10100129B2.

Target of assay: CD16B-NA2 (FcgRIIIb-NA2) (Homo sapiens, UniProt O75015)
Sequence (O75015 17-200 limits assumed): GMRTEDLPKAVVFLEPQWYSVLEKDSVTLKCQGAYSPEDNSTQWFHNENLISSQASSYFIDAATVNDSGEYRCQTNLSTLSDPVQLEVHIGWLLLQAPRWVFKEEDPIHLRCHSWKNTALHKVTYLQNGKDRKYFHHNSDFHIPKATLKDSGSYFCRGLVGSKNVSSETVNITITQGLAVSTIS
Test protocol: SPR binding to FcgR-his: CD16B-NA2
Study conditions: 1 μM antibody, anti-his Fab captured FcgR-his
Description: The binding of antibodies to Fc gamma receptors (FcγRs or FcgRs) was studied using biosensor technologies including Biacore surface plasmon resonance (SPR) and Fortebio Biolayer Interferometry (BLI). […] Various his-tagged FcgRs (7 ug/ml) were captured via the C-terminal his-tag using a contact time of 30 s at 10 ul/min, and the binding of 1.0 μM antibody was evaluated in a running buffer of 10 mM NaPO4, 130 mM NaCl, 0.05% p20 (PBS-T) pH 7.1. […]
The entries below are paired with their reported % Rmax, binding to hCD16B-NA2.
Report the value in % with no unit label.

Molecule: mAb6-IgG2.3 (protein, left off: another chain or arm of the molecule) constant: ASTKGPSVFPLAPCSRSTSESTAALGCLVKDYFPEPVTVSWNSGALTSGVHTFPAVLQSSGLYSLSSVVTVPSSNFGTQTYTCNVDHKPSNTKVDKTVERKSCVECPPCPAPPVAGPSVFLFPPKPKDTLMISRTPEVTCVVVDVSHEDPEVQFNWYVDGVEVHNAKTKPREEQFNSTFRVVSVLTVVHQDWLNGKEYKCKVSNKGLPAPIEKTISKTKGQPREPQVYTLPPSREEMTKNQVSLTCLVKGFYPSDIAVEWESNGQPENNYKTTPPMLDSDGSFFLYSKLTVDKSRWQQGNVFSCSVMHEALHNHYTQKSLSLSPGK
Measured attribute: % Rmax, binding to hCD16B-NA2
Observed: 0

Molecule: mAb5-IgG2.5 (protein, left off: another chain or arm of the molecule) constant: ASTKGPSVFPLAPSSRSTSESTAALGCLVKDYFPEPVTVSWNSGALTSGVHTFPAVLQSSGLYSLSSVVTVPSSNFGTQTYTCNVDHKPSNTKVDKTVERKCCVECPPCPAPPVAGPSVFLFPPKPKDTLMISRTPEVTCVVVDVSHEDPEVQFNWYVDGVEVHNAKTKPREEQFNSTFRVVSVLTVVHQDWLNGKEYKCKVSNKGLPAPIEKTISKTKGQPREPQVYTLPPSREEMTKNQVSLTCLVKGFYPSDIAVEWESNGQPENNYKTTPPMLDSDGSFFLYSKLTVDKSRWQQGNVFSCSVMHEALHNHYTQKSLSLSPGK
Measured attribute: % Rmax, binding to hCD16B-NA2
Observed: 1

Data request: // returns reported % Rmax, binding to hCD16B-NA2 for input mAb6-IgG2.5 (protein, left off: another chain or arm of the molecule) constant: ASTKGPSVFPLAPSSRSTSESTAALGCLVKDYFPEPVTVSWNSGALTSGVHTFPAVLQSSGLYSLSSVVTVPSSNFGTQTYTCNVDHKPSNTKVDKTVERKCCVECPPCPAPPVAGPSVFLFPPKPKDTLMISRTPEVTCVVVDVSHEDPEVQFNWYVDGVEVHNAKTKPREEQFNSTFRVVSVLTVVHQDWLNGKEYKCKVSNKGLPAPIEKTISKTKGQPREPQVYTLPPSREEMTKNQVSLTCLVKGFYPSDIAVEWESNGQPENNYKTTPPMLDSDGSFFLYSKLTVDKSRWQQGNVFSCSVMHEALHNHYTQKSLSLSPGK
Data returned: 0

Data request: // returns reported % Rmax, binding to hCD16B-NA2 for input mAb4-IgG2.5 (protein, left off: another chain or arm of the molecule) constant: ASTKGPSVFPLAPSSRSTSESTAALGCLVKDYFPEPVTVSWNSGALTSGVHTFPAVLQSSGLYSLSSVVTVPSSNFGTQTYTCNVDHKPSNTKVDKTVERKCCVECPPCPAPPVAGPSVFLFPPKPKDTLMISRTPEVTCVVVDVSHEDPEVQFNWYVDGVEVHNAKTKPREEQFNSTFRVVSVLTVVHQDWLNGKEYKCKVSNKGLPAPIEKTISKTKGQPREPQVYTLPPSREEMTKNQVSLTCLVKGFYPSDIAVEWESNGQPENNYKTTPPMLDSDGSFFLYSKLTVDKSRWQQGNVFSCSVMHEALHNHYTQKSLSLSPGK
Data returned: 0

Data request: // returns reported % Rmax, binding to hCD16B-NA2 for input mAb8-IgG2.5G1-AY-V27 (protein, left off: another chain or arm of the molecule) constant: ASTKGPSVFPLAPSSRSTSESTAALGCLVKDYFPEPVTVSWNSGALTSGVHTFPAVLQSSGLYSLSSVVTVPSSNFGTQTYTCNVDHKPSNTKVDKTVERKCCVECPPCPAPELLGGPSVFLFPPKPKDTLMISRTPEVTCVVVDVEHEDPEVKFNWYVDGVEVHNAKTKPREEQYNSTYRVVSVLTVLHQDWLNGKEYKCKVSNKALPAPIEKTISKAKGQPREPQVYTLPPSREEMTKNQVSLTCLVKGFYPSDIAVEWESNGQPENNYKTTPPVLDSDGSFFLYSKLTVDKSRWQQGNVFSCSVMHEALHNHYTQKSLSLSPGK
Data returned: 10

Data request: // returns reported % Rmax, binding to hCD16B-NA2 for input mAb10-IgG2.3G1-AY-V27 (protein, left off: another chain or arm of the molecule) constant: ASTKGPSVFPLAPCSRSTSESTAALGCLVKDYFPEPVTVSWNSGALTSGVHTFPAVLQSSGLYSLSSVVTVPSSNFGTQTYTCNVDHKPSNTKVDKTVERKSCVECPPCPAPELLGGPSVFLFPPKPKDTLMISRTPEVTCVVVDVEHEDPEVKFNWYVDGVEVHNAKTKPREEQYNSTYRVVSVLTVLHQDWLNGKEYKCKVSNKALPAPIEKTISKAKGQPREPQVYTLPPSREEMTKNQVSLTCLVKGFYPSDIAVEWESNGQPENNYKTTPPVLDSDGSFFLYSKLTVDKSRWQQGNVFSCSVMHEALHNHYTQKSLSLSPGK
Data returned: 3

Data request: // returns reported % Rmax, binding to hCD16B-NA2 for input mAb7-IgG2.5G1-AY-V27 (protein, left off: another chain or arm of the molecule) constant: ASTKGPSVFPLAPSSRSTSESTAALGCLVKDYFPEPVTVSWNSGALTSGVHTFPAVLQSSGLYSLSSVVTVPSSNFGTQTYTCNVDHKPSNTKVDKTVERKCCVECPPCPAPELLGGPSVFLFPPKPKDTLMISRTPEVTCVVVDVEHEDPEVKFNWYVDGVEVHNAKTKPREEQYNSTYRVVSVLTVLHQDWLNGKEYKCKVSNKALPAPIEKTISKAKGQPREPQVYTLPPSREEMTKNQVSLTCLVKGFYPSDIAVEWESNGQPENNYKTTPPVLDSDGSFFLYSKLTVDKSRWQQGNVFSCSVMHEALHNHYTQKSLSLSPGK
Data returned: 9
